# Test system: EKVX
# assayRemarks: NCI tumour cell line growth inhibition, 48 h
Calls of active or inactive are those of the source. Rule as the data show it: active = GI50 up to about 1.1 µM and inactive = higher.
parameterMeasured: GI50

{"molecule": "C=CCCCCOC1C=CC(O)C(CO)O1 (stereo not given)", "GI50": "> 100 µM (inactive)"}

Consider the molecule CC(NNC(=O)c1ccncc1)c1ccc(Cl)cc1Cl (stereo not given) and give its recorded GI50.
> 100 µM (inactive)

Answer with the recorded GI50 of Brc1ccc(C2CC3(c4ccccc4)ON=C(c4ccccc4)N3c3ccccc3S2)cc1 (stereo not given) only.
> 100 µM (inactive)

Indicate the recorded GI50 value for this molecule: "c1ccc([P+](c2ccccc2)(c2ccccc2)c2ccc(-c3ccc([P+](c4ccccc4)(c4ccccc4)c4ccccc4)cc3)cc2)cc1"
37 µM (inactive)

Given "O=C(O)CO/N=C1/C(=C2/C(=O)Nc3ccccc32)Nc2ccccc21" , respond with its GI50.
24.9 µM (inactive)

Answer with the recorded GI50 of O=C(O)CCC(=O)c1ccc2c(c1)C(C(=O)O)CC2 (stereo not given) only.
> 100 µM (inactive)
